Test: in vivo
Details: mouse, ip
observation_type: LD50

compound: CCOC(=O)C1=C(C)NC(CSCCN)=C(C(=O)OCC)C1c1ccccc1C(F)(F)F (centres unmarked)
reading: 5 mg/kg

compound: CCOC(=O)C1=C(CSCCN)NC(C)=C(C(=O)OC)C1c1ccccc1Cl (centres unmarked)
reading: 4 mg/kg

compound: CCOC(=O)C1=C(C)NC(CSCCNCCC#N)=C(C(=O)OCC)C1c1cccc([N+](=O)[O-])c1 (centres unmarked)
reading: 54 mg/kg

compound: CCOC(=O)C1=C(CSCCCN)NC(C)=C(C(=O)OC)C1c1cccc([N+](=O)[O-])c1 (centres unmarked)
reading: 16 mg/kg

compound: CCOC(=O)C1=C(CSCCN)NC(C)=C(C#N)C1c1cccc([N+](=O)[O-])c1 (centres unmarked)
reading: 82 mg/kg

compound: CCOC(=O)C1=C(CSCCN(C)C)NC(C)=C(C(=O)OC)C1c1cccc([N+](=O)[O-])c1 (centres unmarked)
reading: 25 mg/kg

compound: CCOC(=O)C1=C(CSCCN)NC(C)=C(C(=O)OC(C)C)C1c1cccc([N+](=O)[O-])c1 (centres unmarked)
reading: 25 mg/kg

compound: CCOC(=O)C1=C(CSCCN)NC(C)=C(C(=O)OC)C1c1ccccc1[N+](=O)[O-] (centres unmarked)
reading: 2 mg/kg

----------
Assay: in vivo
Conditions: mouse, ip
# strict inequality: LD50 < 60 mg/kg yields Yes, everything else yields No

compound: CCOC(=O)C1=C(CSCCNCCC#N)NC(C)=C(C(=O)OC)C1c1cccc([N+](=O)[O-])c1 (stereo not drawn) [Compound 20]
label_value: Yes

compound: CCOC(=O)C1=C(CSCCN)NC(C)=C(C(=O)OC)C1c1cccc(Cl)c1 (stereo not drawn) [Compound 7]
label_value: Yes

compound: CCOC(=O)C1=C(C)NC(CSCC(N)C(=O)OCC)=C(C(=O)OCC)C1c1cccc([N+](=O)[O-])c1 (stereo not drawn) [Compound 32]
label_value: No

compound: CCOC(=O)C1=C(CSCCNC=O)NC(C)=C(C(=O)OC)C1c1cccc([N+](=O)[O-])c1 (stereo not drawn) [Example 3]
label_value: No

compound: COC(=O)C1=C(C)NC(CSCCN)=C(C(=O)OC)C1c1cccc([N+](=O)[O-])c1 (stereo not drawn) [Compound 25]
label_value: Yes

----------
log10 LD50: recorded values
Experiment: in vivo
Conditions: mouse, ip
observation_type: log10 LD50 (log10 of the value in mg/kg)

molecule: CCOC(=O)C1=C(CSCCCCN)NC(C)=C(C(=O)OC)C1c1cccc([N+](=O)[O-])c1 (centres unmarked) [Compound 18]
reading: 0.60
--
molecule: CCOC(=O)C1=C(CSCCN)NC(C)=C(C(=O)OC)C1c1cccc(C#N)c1 (centres unmarked) [Compound 28]
reading: 1.63
--
molecule: CCOC(=O)C1=C(CSCCN)NC(C)=C(C(=O)OC)C1c1ccccc1SC (centres unmarked) [Compound 8]
reading: 0.70
--
molecule: CCOC(=O)C1=C(CSCCN)NC(C)=C(C(=O)OC)C1c1cccc([N+](=O)[O-])c1 (centres unmarked) [Compound 13]
reading: 0.90
--
molecule: CCOC(=O)C1=C(CSCC(N)CO)NC(C)=C(C(=O)OC)C1c1cccc([N+](=O)[O-])c1 (centres unmarked) [Compound 31]
reading: 1.94
--
molecule: CCOC(=O)C1=C(CSCCN)NC(C)=C(C(=O)OC)C1c1cccc([N+](=O)[O-])c1 (racemic) [Compound 11]
reading: 1.34
--
molecule: CCOC(=O)C1=C(CSCC(C)N)NC(C)=C(C(=O)OC)C1c1cccc([N+](=O)[O-])c1 (centres unmarked) [Compound 30]
reading: 1.70
--
molecule: CCOC(=O)C1=C(CSCCN)NC(C)=C(C(=O)OC)C1c1cccc(C(F)(F)F)c1 (centres unmarked) [Compound 9]
reading: 1.36
